Entry source: patent US20260242478A1

biological target: T1, PSMA Fab (006 PSMA Fab) (biotinylated (site not stated)); experiment: clonal phage ELISA on plate-captured biotinylated PSMA Fab, blocking buffer alone, anti-M13 HRP detection
T1 construct: also called Anti-PSMA Fab
Metric Name: Phage binding ELISA signal, Anti-PSMA Fab

{"Binder": "SEMRCSPPWMCYGF [Phage-3841]", "Experimental Value": 1.22}
{"Binder": "PEIRCAPLWMCVGF [Phage-3829]", "Experimental Value": 1.24}
{"Binder": "SDYMCRPSWMCEGL [Phage-3838]", "Experimental Value": 1.23}
{"Binder": "VLHKCLPTWMCNGF [Phage-3836]", "Experimental Value": 1.23}
{"Binder": "NYNACVPIWMCEGF [Phage-3839]", "Experimental Value": 1.22}
{"Binder": "FWQRCVPTWMCEGF [Phage-3835]", "Experimental Value": 1.23}
{"Binder": "IDRHCIPAWMCEQF [Phage-3828]", "Experimental Value": 1.24}
{"Binder": "DPVWCIPQWMCEGF [Phage-3837]", "Experimental Value": 1.23}
